Origin of the recorded values: paper PMC8892665

TARGET OR SYSTEM: calf intestinal alkaline phosphatase (CIAP) (Bos taurus, UniProt P19111)
Sequence (P19111 20-533): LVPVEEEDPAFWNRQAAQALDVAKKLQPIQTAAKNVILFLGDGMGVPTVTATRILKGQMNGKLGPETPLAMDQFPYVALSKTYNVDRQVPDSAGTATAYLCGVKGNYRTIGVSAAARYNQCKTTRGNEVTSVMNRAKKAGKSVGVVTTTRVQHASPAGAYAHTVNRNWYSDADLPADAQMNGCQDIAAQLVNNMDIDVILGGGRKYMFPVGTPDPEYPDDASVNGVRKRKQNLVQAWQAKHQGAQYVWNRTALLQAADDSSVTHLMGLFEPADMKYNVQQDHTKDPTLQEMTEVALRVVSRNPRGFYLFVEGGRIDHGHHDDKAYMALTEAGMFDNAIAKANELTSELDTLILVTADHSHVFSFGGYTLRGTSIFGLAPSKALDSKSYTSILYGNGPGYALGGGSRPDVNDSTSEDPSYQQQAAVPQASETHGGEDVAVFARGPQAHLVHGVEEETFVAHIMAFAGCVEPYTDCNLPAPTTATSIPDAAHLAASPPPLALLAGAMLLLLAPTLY
ASSAY COMMENT: Calf intestinal alkaline phosphatase inhibition assay
Assay type: biochemical
OBSERVATION TYPE: alkaline phosphatase inhibitory activity (in words)

# example entries with known answers
1) O=C1NC2=C(C(=O)N(Cc3ccc(Cl)cc3)C2)C(c2ccc(O)cc2)N1 (stereo not drawn) [3c] = low activities
2) O=C1NC2=C(C(=O)N(Cc3ccc(Cl)cc3)C2)C(c2ccccc2O)N1 (stereo not drawn) [4c] = no inhibition
3) O=C1NC2=C(C(=O)N(Cc3ccccc3)C2)C(c2ccc(O)cc2)N1 (stereo not drawn) [3a] = no inhibition
4) O=C1NC2=C(C(=O)N(c3ccc(F)cc3)C2)C(c2ccccc2O)N1 (stereo not drawn) [4f] = low activities
5) O=C1NC2=C(C(=O)N(c3nc4ccccc4[nH]3)C2)C(c2ccccc2O)N1 (stereo not drawn) [4g] = no inhibition

Let us move to another entry and its alkaline phosphatase inhibitory activity (in words).
Query: alkaline phosphatase inhibitory activity (in words); subject: COc1ccc(N2CC3=C(C2=O)C(c2ccccc2O)NC(=O)N3)cc1 (stereo not drawn) [4j]
low activities
